Data origin, for the record: patent US20240400708A1

Target: feline FcRn complex (FcRn-α subunit and β-microglobulin), biotin labeled (feline)
Assay: SPR, pH 6
Property: Kd; scope: individual binders
Give a bare numeral; the unit nM is implied.

Some binders with recorded Kd:
Hello, please tell me recorded Kd for this one: feline IgG1a Q311K (antibody, part only; not given: Variable domains, not shown: another chain or arm of the molecule) constant: ASTTAPSVFPLAPSCGTTSGATVALACLVLGYFPEPVTVSWNSGALTSGVHTFPAVLQASGLYSLSSMVTVPSSRWLSDTFTCNVAHPPSNTKVDKTVRKTDHPPGPKPCDCPKCPPPEMLGGPSIFIFPPKPKDTLSISRTPEVTCLVVDLGPDDSDVQITWFVDNTQVYTAKTSPREEQFNSTYRVVSVLPILHKDWLKGKEFKCKVNSKSLPSPIERTISKAKGQPHEPQVYVLPPAQEELSRNKVSVTCLIKSFHPPDIAVEWEITGQPEPENNYRTTPPQLDSDGTYFVYSKLSVDRSHWQRGNTYTCSVSHEALHSHHTQKSLTQSPGK
4.85

Indicate its recorded Kd; the binder in question is feline IgG1a D312R (antibody, part only; not given: Variable domains, not shown: another chain or arm of the molecule) constant: ASTTAPSVFPLAPSCGTTSGATVALACLVLGYFPEPVTVSWNSGALTSGVHTFPAVLQASGLYSLSSMVTVPSSRWLSDTFTCNVAHPPSNTKVDKTVRKTDHPPGPKPCDCPKCPPPEMLGGPSIFIFPPKPKDTLSISRTPEVTCLVVDLGPDDSDVQITWFVDNTQVYTAKTSPREEQFNSTYRVVSVLPILHQRWLKGKEFKCKVNSKSLPSPIERTISKAKGQPHEPQVYVLPPAQEELSRNKVSVTCLIKSFHPPDIAVEWEITGQPEPENNYRTTPPQLDSDGTYFVYSKLSVDRSHWQRGNTYTCSVSHEALHSHHTQKSLTQSPGK
6.91

Look up and state reported Kd for feline IgG1a S434T (antibody, part only; not given: Variable domains, not shown: another chain or arm of the molecule) constant: ASTTAPSVFPLAPSCGTTSGATVALACLVLGYFPEPVTVSWNSGALTSGVHTFPAVLQASGLYSLSSMVTVPSSRWLSDTFTCNVAHPPSNTKVDKTVRKTDHPPGPKPCDCPKCPPPEMLGGPSIFIFPPKPKDTLSISRTPEVTCLVVDLGPDDSDVQITWFVDNTQVYTAKTSPREEQFNSTYRVVSVLPILHQDWLKGKEFKCKVNSKSLPSPIERTISKAKGQPHEPQVYVLPPAQEELSRNKVSVTCLIKSFHPPDIAVEWEITGQPEPENNYRTTPPQLDSDGTYFVYSKLSVDRSHWQRGNTYTCSVSHEALHTHHTQKSLTQSPGK
10.6

For feline IgG1a S252D (antibody, part only; not given: Variable domains, not shown: another chain or arm of the molecule; small tags and cut ends) constant: ASTTAPSVFPLAPSCGTTSGATVALACLVLGYFPEPVTVSWNSGALTSGVHTFPAVLQASGLYSLSSMVTVPSSRWLSDTFTCNVAHPPSNTKVDKTVRKTDHPPGPKPCDCPKCPPPEMLGGPSIFIFPPKPKDTLDISRTPEVTCLVVDLGPDDSDVQITWFVDNTQVYTAKTSPREEQFNSTYRVVSVLPILHQDWLKGKEFKCKVNSKSLPSPIERTISKAKGQPHEPQVYVLPPAQEELSRNKVSVTCLIKSFHPPDIAVEWEITGQPEPENNYRTTPPQLDSDGTYFVYSKLSVDRSHWQRGNTYTCSVSHEALHSHHTQKSLTQSPGK , write its Kd.
93.5

# input for lookup
Provide one value: measured Kd of feline IgG1a T256G (antibody, part only; not given: variable domains and light chain, not shown: another chain or arm of the molecule) constant: ASTTAPSVFPLAPSCGTTSGATVALACLVLGYFPEPVTVSWNSGALTSGVHTFPAVLQASGLYSLSSMVTVPSSRWLSDTFTCNVAHPPSNTKVDKTVRKTDHPPGPKPCDCPKCPPPEMLGGPSIFIFPPKPKDTLSISRGPEVTCLVVDLGPDDSDVQITWFVDNTQVYTAKTSPREEQFNSTYRVVSVLPILHQDWLKGKEFKCKVNSKSLPSPIERTISKAKGQPHEPQVYVLPPAQEELSRNKVSVTCLIKSFHPPDIAVEWEITGQPEPENNYRTTPPQLDSDGTYFVYSKLSVDRSHWQRGNTYTCSVSHEALHSHHTQKSLTQSPGK
76.9
